All values here come from patent US10004701B2.

Listed here: items and their measured fold induction at 50 µM.
Tested on: E. cloacae
TEST METHOD NOTES: AK assay 384-well format, Prestwick library screening
Assay type: cell-based, Enterobacter cloacae
CONDITION LABEL: Enterobacter cloacae, 3 h, 50 μM final drug concentration; planktonic; […]; read-out: AK-based Prestwick Library Screening Results, E. cloacae (fold increase in extracellular AK activity)
Response field accepts a number only; no unit should be typed.

COc1ccn(C)c(=O)c1C#N : 1.3
CC1=CC(=O)C2=C(C)C[C@H](O)[C@@H]3[C@H](OC(=O)[C@H]3C)[C@H]12 [Austricine hydrate] : 1.3
C[C@@H]1CC[C@@]2(NC1)O[C@H]1C[C@H]3[C@@H]4CC=C5C[C@@H](O)CC[C@]5(C)[C@H]4CC[C@]3(C)[C@H]1[C@@H]2C : 0.9

Lab note: next molecule to report on.
Note fold induction at 50 µM for the molecule shown: C[C@@]12C(=O)OC(=O)[C@]1(C)[C@H]1CC[C@@H]2O1 0.6

* * *

Listed here: items and their measured fold induction at 50 µM.
Tested on: E. cloacae
TEST METHOD NOTES: AK assay 384-well format, Prestwick library screening
Type: cell-based, Enterobacter cloacae
CONDITION LABEL: Enterobacter cloacae, 3 h; planktonic E. cloacae; 50 μM final drug concentration; positive cutoff 3-fold increase; read-out: AK-based Prestwick library screening result, E. cloacae (fold increase in extracellular AK activity)
Structures can show the parent of a compound that is named as a salt.
Response field accepts a number only; no unit should be typed.

O=c1c(O)c(-c2ccc(O)cc2)oc2cc(O)cc(O)c12 : 1.6
Cc1[nH]c(=O)c(C#N)cc1-c1ccncc1 : 0.9
C[C@]1(OC(=O)/C=C/c2ccccc2)C[C@@H](O)[C@]2(O)C=CO[C@@H](O[C@@H]3O[C@H](CO)[C@@H](O)[C@H](O)[C@H]3O)[C@@H]21 [Harpagoside] : 0.9

Note fold induction at 50 µM for the compound shown: CN(C)CCOC(=O)C(c1ccccc1)C1(O)CCCC1 (stereo not shown) [Cyclopentolate hydrochloride] 1.3

* * *

Listed here: items and their measured fold induction at 50 µM.
Tested on: E. cloacae
TEST METHOD NOTES: AK assay 384-well format, Prestwick library screening
Type: cell-based, Enterobacter cloacae
CONDITION LABEL: Enterobacter cloacae, 3 h; planktonic E. cloacae; 50 μM final drug concentration; cutoff for positive-scoring molecules 3-fold increase; read-out: AK-based Prestwick Library Screening Results, E. cloacae (increase in extracellular AK activity)
Structures can show the parent of a compound that is named as a salt.

A selection of reference data follows.
CN(C)CCC=C1c2ccccc2C=Cc2ccccc21 [Cyclobenzaprine hydrochloride] : 1.2
Nc1c(Br)cc(Br)cc1CN[C@H]1CC[C@H](O)CC1 [Ambroxol hydrochloride] : 1.5
C[n+]1cccc(C(=O)[O-])c1 : 1.2
CN1CCN(C(c2ccccc2)c2ccccc2)CC1 [Cyclizine hydrochloride] : 0.9
CC(CCc1ccc(O)cc1)NCCc1ccc(O)c(O)c1 (stereo not drawn) [Dobutamine hydrochloride] : 1.1
CCCCCCCCNC(C)C(O)c1ccc(SC(C)C)cc1 (stereo not drawn) [Suloctidil, suloctidil, reference compound] : 0.9

Quote E. cloacae fold induction at 50 µM for entry O=C1CCc2cc(OCCCCc3nnnn3C3CCCCC3)ccc2N1 . 0.9

Quote E. cloacae fold induction at 50 µM for entry O=C(O)COCCN1CCN(C(c2ccccc2)c2ccc(Cl)cc2)CC1 (stereo not drawn) [Cetirizine dihydrochloride] . 0.9

Quote E. cloacae fold induction at 50 µM for entry O=C(O)Cc1ccccc1Nc1c(Cl)cccc1Cl [Diclofenac sodium] . 1.2
